biological target: B1R receptor of the rat (rB1R) (Rattus norvegicus, UniProt P97583); construct: host or cells: CHO K1 cells; assay: FLIPR Ca2+ assay on rB1R-transfected CHO K1 cells, antagonistic action; format: cell-based; settings: CHO-K1, 10 μM test substance; agonist Des-Arg9-bradykinin 100 nM; % of maximum achievable inhibition; read-out: rB1R [10 μM] % inhibition
Sequence (P97583 whole entry): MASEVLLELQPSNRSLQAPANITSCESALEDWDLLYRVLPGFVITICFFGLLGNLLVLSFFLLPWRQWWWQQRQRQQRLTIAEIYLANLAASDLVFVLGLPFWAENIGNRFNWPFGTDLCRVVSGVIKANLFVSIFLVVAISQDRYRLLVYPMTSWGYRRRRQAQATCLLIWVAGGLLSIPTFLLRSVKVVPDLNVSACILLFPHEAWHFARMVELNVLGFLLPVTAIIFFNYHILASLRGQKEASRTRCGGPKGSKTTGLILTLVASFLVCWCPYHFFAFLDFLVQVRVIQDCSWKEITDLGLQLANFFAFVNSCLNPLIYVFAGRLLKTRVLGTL
Readout type: inhibition at 10 µM
Write the numeric value and follow it with the unit.

These recorded examples may help you get a feel for the data.
Compound: COc1cc(C)c(S(=O)(=O)N2CCC(OCC(=O)NC3CCC(Cc4ccccc4)(N4CCCCC4)CC3)C2)c(C)c1 (centres unmarked) [Compound 18]
Target: B1R receptor of the rat (rB1R) (Rattus norvegicus, UniProt P97583)
Readout type: inhibition at 10 µM
Result: 74%
--
Compound: Cc1cc(C)c(S(=O)(=O)N2CCC(OCC(=O)NC3CCC(CCc4ccccc4)(N(C)C)CC3)C2)c(C)c1 (centres unmarked) [Compound 29]
Target: B1R receptor of the rat (rB1R) (Rattus norvegicus, UniProt P97583)
Readout type: inhibition at 10 µM
Result: 46%
--
Compound: COc1cc(C)c(S(=O)(=O)N2CCCC(OCC(=O)NC3CCC(Cc4ccccc4)(N4CCOCC4)CC3)C2)c(C)c1 (centres unmarked) [Compound 190]
Target: B1R receptor of the rat (rB1R) (Rattus norvegicus, UniProt P97583)
Readout type: inhibition at 10 µM
Result: 57%
--
Compound: COc1cc(C)c(S(=O)(=O)N(C)CCOCC(=O)N2CCC(c3ccccc3)(N3CCN(c4ccncc4)CC3)CC2)c(C)c1 [Compound 69]
Target: B1R receptor of the rat (rB1R) (Rattus norvegicus, UniProt P97583)
Readout type: inhibition at 10 µM
Result: 99%
--
Compound: COc1cc(C)c(S(=O)(=O)N2CCCCC2COCC(=O)N(C)CCCC2CCC(c3ccccc3)(N3CCCC3)CC2)c(C)c1 (centres unmarked) [Compound 32]
Target: B1R receptor of the rat (rB1R) (Rattus norvegicus, UniProt P97583)
Readout type: inhibition at 10 µM
Result: 102%

For each of the compounds below, note its inhibition at 10 µM.
1. CN(CCC1CCC(Cc2ccccc2)(N2CCCC2)CC1)C(=O)COCC1CCc2ccccc2N1S(=O)(=O)c1ccc(Cl)c(Cl)c1 (centres unmarked) [Compound 104]
2. CN(CCC1CCC(c2ccccc2)(N(C)C)CC1)C(=O)COCC1CCc2ccccc2N1S(=O)(=O)c1ccc(Cl)c(Cl)c1 (centres unmarked) [Compound 111]
3. CN(C)C1(CCc2ccccc2)CCN(C(=O)CC(NS(=O)(=O)c2ccc3ccccc3c2)c2ccccc2)CC1 (centres unmarked) [Compound 105]
4. CN(CC1CCC(Cc2ccccc2)(N2CCCC2)CC1)C(=O)COCC1CCc2ccccc2N1S(=O)(=O)c1ccc(Cl)c(Cl)c1 (centres unmarked) [Compound 127]
5. CN(C)C1(Cc2ccccc2)CCN(C(=O)CC2CCCCN2S(=O)(=O)c2cccc(C(F)(F)F)c2)CC1 (centres unmarked) [Compound 97]
6. COc1cc(C)c(S(=O)(=O)N2CCCC(OCC(=O)NC3CCC(Cc4ccccc4)(N4CCCC4)CC3)C2)c(C)c1 (centres unmarked) [Compound 181]

["82%", "78%", "81%", "54%", "91%", "71%"]

Could you tell me inhibition at 10 µM for each of these compounds? They are listed below.
1. COc1cc(C)c(S(=O)(=O)N2CCCC[C@H]2COCC(=O)N(C)CCC2CCC(c3ccccc3)(N3CCC3)CC2)c(C)c1 (some centres unmarked) [Compound 201]
2. COc1cc(C)c(S(=O)(=O)N(C)CCOCC(=O)N(C)CC2CCC(Cc3ccccc3)(N3CCCC3)CC2)c(C)c1 (centres unmarked) [Compound 45]
3. COc1cc(C)c(S(=O)(=O)N(C)CCOCC(=O)N2CCC(c3cccnc3)(N(C)C)CC2)c(C)c1 [Compound 208]

1. 97%
2. 100%
3. 102%

* * *

biological target: human B1R receptor (hB1R) (Homo sapiens, UniProt P46663); construct: host or cells: CHO K1 cells; assay: FLIPR Ca2+ assay on hB1R-transfected CHO K1 cells, antagonistic action; type: cell-based; conditions: CHO-K1, 10 μM test substance; agonist Lys-Des-Arg9-bradykinin 0.5 nM; % of maximum achievable inhibition; read-out: hB1R [10 μM] % inhibition
Give inhibition at 10 µM for every item shown.
Answers are plain numbers, in %.

// worked examples, inhibition at 10 µM included
Compound: CN(CCOCC(=O)NC1CCC(c2ccccc2)(N2CCCC2)CC1)S(=O)(=O)c1c(Cl)cc(Cl)cc1Cl (centres unmarked)
Target: human B1R receptor (hB1R) (Homo sapiens, UniProt P46663)
Unit spec: %
inhibition at 10 µM: 90
--
Compound: COc1cc(C)c(S(=O)(=O)N2CCCCC2COCC(=O)N(C)CCC2CCC(CCc3ccccc3)(N3CCCC3)CC2)c(C)c1 (centres unmarked)
Target: human B1R receptor (hB1R) (Homo sapiens, UniProt P46663)
Unit spec: %
inhibition at 10 µM: 104
--
Compound: CN(CC1CCC(c2ccccc2)(N2CCCC2)CC1)C(=O)CC1CCCCN1S(=O)(=O)c1cccc(C(F)(F)F)c1 (centres unmarked)
Target: human B1R receptor (hB1R) (Homo sapiens, UniProt P46663)
Unit spec: %
inhibition at 10 µM: 94
--
Compound: COc1cc(C)c(S(=O)(=O)N2CCCCC2COCC(=O)N2CCC(CCc3ccccc3)(N(C)C)CC2)c(C)c1 (centres unmarked)
Target: human B1R receptor (hB1R) (Homo sapiens, UniProt P46663)
Unit spec: %
inhibition at 10 µM: 102

Hi, could you look up inhibition at 10 µM for each item in my list?
1. Cc1cc(S(=O)(=O)N2CCCCC2CCC(=O)N(C)CCCC2CCC(Cc3ccccc3)(N3CCCC3)CC2)c(C)cc1Cl (centres unmarked)
2. COc1cc(C)c(S(=O)(=O)N2CCCCC2COCC(=O)N2CCC(CCc3ccccc3)(N3CCN(C)CC3)CC2)c(C)c1 (centres unmarked)
3. CN1CCN(C2(c3ccccc3)CCN(C(=O)CC(NS(=O)(=O)c3ccc4ccccc4c3)c3ccccc3)CC2)CC1 (centres unmarked)
4. COc1cc(C)c(S(=O)(=O)N(C)CCOCC(=O)N(C)CC2CCC(CCc3ccccc3)(N3CCCC3)CC2)c(C)c1 (centres unmarked)

1. 98
2. 100
3. 99
4. 102

* * *

target: human B1R receptor (hB1R) (Homo sapiens); construct: host or cells: CHO K1 cells; assay: FLIPR Ca2+ assay on hB1R-transfected CHO K1 cells, antagonistic action; format: cell-based; details: CHO-K1, 10 μM test substance; agonist Lys-Des-Arg9-bradykinin 0.5 nM; % of maximum achievable inhibition; read-out: hB1R [10 μM] % inhibition
Please provide measured inhibition at 10 µM for the entries that follow.
Provide a numeric answer, followed by its unit.

// worked examples, inhibition at 10 µM included
Compound: COc1cc(C)c(S(=O)(=O)N(C)CCOCC(=O)N2CCC(c3ccncc3)(N(C)C)CC2)c(C)c1 [Compound 206]
Readout type: inhibition at 10 µM
Result: 100%
--
Compound: COc1cc(C)c(S(=O)(=O)N2CCCCC2COCC(=O)N(C)CCCC2CCC(c3ccccc3)(N(C)C)CC2)c(C)c1 (stereo not shown) [Compound 203]
Readout type: inhibition at 10 µM
Result: 99%
--
Compound: COc1cc(C)c(S(=O)(=O)N2CCC(OCC(=O)NC3CCC(c4ccccc4)(N4CCCCC4)CC3)C2)c(C)c1 (stereo not shown) [Compound 27]
Readout type: inhibition at 10 µM
Result: 69%
--
Compound: CN(CCC1CCC(Cc2ccccc2)(N2CCCC2)CC1)C(=O)CC1CCCCN1S(=O)(=O)c1cccc(C(F)(F)F)c1 (stereo not shown) [Compound 121]
Readout type: inhibition at 10 µM
Result: 102%
--
Compound: CN(CCC1CCC(c2ccccc2)(N(C)C)CC1)C(=O)CC1CCCCN1S(=O)(=O)c1cccc(C(F)(F)F)c1 (stereo not shown) [Compound 125]
Readout type: inhibition at 10 µM
Result: 98%

Please give inhibition at 10 µM for each item listed below.
1. CN(C)C1(c2ccccc2)CCC(NC(=O)COC2CCN(S(=O)(=O)c3c(Cl)cc(Cl)cc3Cl)C2)CC1 (stereo not shown) [Compound 198]
2. CN(C)C1(c2ccccc2)CCC(NC(=O)COCCN(C)S(=O)(=O)c2c(Cl)cc(Cl)cc2Cl)CC1 (stereo not shown) [Compound 199]

["63%", "76%"]

* * *

Provide the reported inhibition at 10 µM of each item.
Biological target: human B1R receptor (hB1R) (Homo sapiens)
Construct: host or cells: CHO K1 cells
Sequence (P46663 1-353): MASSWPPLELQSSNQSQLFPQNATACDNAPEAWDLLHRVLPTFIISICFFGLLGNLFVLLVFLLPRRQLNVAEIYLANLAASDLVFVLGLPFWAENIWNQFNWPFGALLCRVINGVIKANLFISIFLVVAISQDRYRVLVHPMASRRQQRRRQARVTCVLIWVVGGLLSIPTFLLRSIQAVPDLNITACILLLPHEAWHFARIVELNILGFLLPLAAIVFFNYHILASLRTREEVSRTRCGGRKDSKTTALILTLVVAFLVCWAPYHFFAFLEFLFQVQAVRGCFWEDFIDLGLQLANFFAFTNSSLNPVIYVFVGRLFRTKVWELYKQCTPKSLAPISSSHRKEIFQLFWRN
Experiment: FLIPR Ca2+ assay on hB1R-transfected CHO K1 cells, antagonistic action
Format: cell-based
Conditions: CHO-K1, 10 μM test substance; agonist Lys-Des-Arg9-bradykinin 0.5 nM; % of maximum achievable inhibition; read-out: hB1R [10 μM] % inhibition
Numbers only, in %.

Compound: O=C(COCC1CCCCN1S(=O)(=O)c1c(Cl)cc(Cl)cc1Cl)NC1CCC(c2ccccc2)(N2CCCC2)CC1 (stereo not shown) [Compound 142]
Readout type: inhibition at 10 µM
Numeric result: 92

Respectfully, I request inhibition at 10 µM for each entry included below.
1. CN1CCN(C2(CCc3ccccc3)CCC(CN(C)C(=O)COCC3CCCCN3S(=O)(=O)c3c(Cl)cc(Cl)cc3Cl)CC2)CC1 (stereo not shown) [Compound 161]
2. Cc1cc(S(=O)(=O)N2CCCCC2CCC(=O)N(C)CC2CCC(CCc3ccccc3)(N3CCCC3)CC2)c(C)cc1Cl (stereo not shown) [Compound 141]
3. CN(C)C1(CCc2ccccc2)CCN(C(=O)CC2CCCCN2S(=O)(=O)c2cccc(C(F)(F)F)c2)CC1 (stereo not shown) [Compound 71]

1. 101
2. 104
3. 92
